Recorded measurements of pEC50, one per entry
- Substrate: NP of A/Brisbane/59/2007(H1N1/H1B) (influenza A virus A/Brisbane/59/2007 (H1N1))
- EXPERIMENT: sandwich ELISA, capture IgG; NP of lysed virus titrated; HRP-NP16 detection
Please report pEC50 as the negative decimal logarithm of the molar concentration, giving only the number.

NP16 (antibody, V domains shown) VH: EVQLVESGGGLVQPGGSLRLSCAASGFTIGNSGIHWVRQAPGKGLEWVAWIGPYWGFTSYADSVKGRFTISADTSKNTAYLQMNSLRAEDTAVYYCARFGNHWHLFMDYWGQGTLVTVSS VL: DIQMTQSPSSLSASVGDRVTITCRASQDVGSYVAWYQQKPGKAPKLLISWTTGLYSGVPSRFSGSGSGTDFTLTISSLQPEDFATYYCQQYFSYPVTFGQGTKVEIKR: 8.32

Now for the binder whose pEC50 we want.
What pEC50 value was documented for this binder, NP19 (antibody, V domains shown) VH: EVQLVESGGGLVQPGGSLRLSCAASGFTISSWGIHWVRQAPGKGLEWVAGIGPFWGYTSYADSVKGRFTISADTSKNTAYLQMNSLRAEDTAVYYCARFGVDNYGYMDYWGQGTLVTVSS VL: DIQMTQSPSSLSASVGDRVTITCRASQDVSGWVAWYQQKPGKAPKLLISWSTGLYSGVPSRFSGSGSGTDFTLTISSLQPEDFATYYCQQYFNFPVTFGQGTKVEIKR ? 8.47
